Numbers sourced from ChEMBL document CHEMBL1132940.

Measurement target: GABA-A receptor; alpha-5/beta-3/gamma-2 (Homo sapiens, UniProt P18507+P28472+P31644)
Sequence (P18507 whole entry): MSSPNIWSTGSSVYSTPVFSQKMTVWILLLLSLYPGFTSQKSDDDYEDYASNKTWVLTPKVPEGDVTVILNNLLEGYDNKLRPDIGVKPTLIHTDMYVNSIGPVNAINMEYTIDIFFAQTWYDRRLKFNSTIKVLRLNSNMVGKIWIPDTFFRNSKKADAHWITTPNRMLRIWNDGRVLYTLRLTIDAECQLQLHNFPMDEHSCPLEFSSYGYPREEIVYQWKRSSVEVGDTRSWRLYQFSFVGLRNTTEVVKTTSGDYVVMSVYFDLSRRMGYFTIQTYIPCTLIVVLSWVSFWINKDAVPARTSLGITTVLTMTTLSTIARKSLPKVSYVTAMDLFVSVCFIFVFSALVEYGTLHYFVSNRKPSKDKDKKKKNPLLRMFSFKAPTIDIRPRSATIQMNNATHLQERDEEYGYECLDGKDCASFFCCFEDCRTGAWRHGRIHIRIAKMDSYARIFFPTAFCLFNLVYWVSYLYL
Sequence (P28472 whole entry): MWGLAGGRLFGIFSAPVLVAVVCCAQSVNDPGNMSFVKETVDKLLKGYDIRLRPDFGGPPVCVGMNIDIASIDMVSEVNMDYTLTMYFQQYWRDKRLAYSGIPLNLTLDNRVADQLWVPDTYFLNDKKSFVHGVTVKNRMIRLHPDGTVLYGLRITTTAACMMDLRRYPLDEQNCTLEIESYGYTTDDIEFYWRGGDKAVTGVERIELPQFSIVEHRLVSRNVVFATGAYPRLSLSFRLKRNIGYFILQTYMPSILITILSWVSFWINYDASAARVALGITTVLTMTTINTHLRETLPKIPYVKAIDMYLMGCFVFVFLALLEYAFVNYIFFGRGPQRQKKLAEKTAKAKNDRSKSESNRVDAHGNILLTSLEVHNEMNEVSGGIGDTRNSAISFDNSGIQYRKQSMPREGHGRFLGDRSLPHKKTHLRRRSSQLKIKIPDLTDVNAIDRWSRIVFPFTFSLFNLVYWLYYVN
Sequence (P31644 whole entry): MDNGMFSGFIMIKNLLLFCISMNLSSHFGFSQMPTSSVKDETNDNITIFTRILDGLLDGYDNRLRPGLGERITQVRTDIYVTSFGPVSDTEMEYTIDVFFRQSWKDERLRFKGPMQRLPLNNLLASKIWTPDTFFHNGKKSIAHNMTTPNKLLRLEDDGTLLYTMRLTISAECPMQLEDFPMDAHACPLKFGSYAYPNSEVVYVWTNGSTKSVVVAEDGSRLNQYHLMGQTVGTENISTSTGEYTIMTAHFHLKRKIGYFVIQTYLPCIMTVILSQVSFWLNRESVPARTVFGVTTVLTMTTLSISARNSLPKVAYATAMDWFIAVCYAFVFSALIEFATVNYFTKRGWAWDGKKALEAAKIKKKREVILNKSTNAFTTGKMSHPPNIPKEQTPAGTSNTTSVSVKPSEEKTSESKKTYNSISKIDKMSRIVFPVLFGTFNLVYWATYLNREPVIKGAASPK
Experiment notes: Binding affinity for human recombinant gamma-aminobutyric-acid (GABA) A receptor alpha-5-beta-3-gamma-2
Property: Ki; scope: individual compounds
Endpoint name: Ki (nM)

Fc1ccc2c(c1)[nH]c1c3c4ccccc4nc-3c[nH]c12 ... 260
c1ccc2c(c1)[nH]c1cnc3c4cccnc4[nH]c3c12 ... 200
O=C1C2C=Nc3ccccc3C2=NN1c1ccccc1 (stereo unspecified) [CGS-8216] ... 0.25
C#Cc1ccc(-n2[nH]c3c(cnc4ccccc43)c2=O)cc1 ... 0.17

====

Each entry below lists one item and its recorded pKi value.
Measurement target: GABA-A receptor; alpha-5/beta-3/gamma-2 (Homo sapiens, UniProt P18507+P28472+P31644)
Experiment notes: Binding affinity for human recombinant gamma-aminobutyric-acid (GABA) A receptor alpha-5-beta-3-gamma-2
Type: protein-complex assay
pKi: −log10 of the molar value.
Endpoint name: pKi

COCc1c(SC#N)[nH]cc2nc3ccc(OCc4ccccc4)cc3c1-2 ... 6.80
C[Si](C)(C)C#Cc1ccc(-n2[nH]c3c(cnc4ccccc43)c2=O)cc1 ... 7.62
CCCC(=O)c1cc2c(cn1)[nH]c1ccccc12 ... 6.00
O=C1CN=C(c2cccs2)c2cc(F)ccc2N1 ... 6.82
O=C1CN=C(c2ccccc2[N+](=O)[O-])c2cc(Br)ccc2N1 ... 6.70
CN1C(=O)CN=C(c2cccs2)c2cc(F)ccc21 ... 7.18
CN1C(=O)CN=C(c2ccccc2)c2cc(C#C[Si](C)(C)C)ccc21 ... 7.20
CCCOc1ccc2[nH]c3cnc(C(=O)NN)c(COC)c3c2c1 ... 6.97
[N-]=[N+]=Nc1ccc2c(c1)C(c1ccccc1N=[N+]=[N-])=NCC(=O)N2 ... 5.79
COc1ccc(-n2nc3c4ccc(OC)cc4[nH]cc-3c2=O)cc1 ... 9.28
COc1ccc2c(c1)ncc1c(=O)n(-c3ccccc3)[nH]c12 ... 9.08
CC(C)c1nc(-c2ncn3c2CN(C)C(=O)c2c(Cl)cccc2-3)no1 ... 8.81
CN1C(=O)CN=C(c2ccccc2[N+](=O)[O-])c2cc([N+](=O)[O-])ccc21 ... 8.11
CCOC(=O)c1[nH]cc2nc3ccc(OCc4ccc5ccccc5c4)cc3c-2c1CC ... 6.57
Clc1cc2c(cn1)[nH]c1ccccc12 ... 6.00
O=[N+]([O-])c1ccc2[nH]c3cnc([N+](=O)[O-])cc3c2c1 ... 6.50
CN1C(=O)CN=C(c2ccccc2)c2cc(C#N)ccc21 ... 6.58
O=C1CN=C(c2ccccc2)c2ccccc2N1 ... 6.85
CCOC(=O)c1cc2c3cc(OCc4ccccc4)ccc3nc-2c[nH]1 ... 6.57
c1ccc2c(c1)[nH]c1c2ncc2[nH]c3ccccc3c21 ... 7.39
c1ccc2c(c1)[nH]c1cnc3c4ccncc4[nH]c3c12 ... 6.62
C#Cc1ccc2ncc3c(=O)n(-c4ccccc4)[nH]c3c2c1 ... 10.10

====

Below, each entry is listed alongside its reported Ratio.
Experiment notes: Selectivity ratio of alpha1 beta-3 gamma2 GABA A / BzR and alpha5 beta-3 gamma2 GABA A / BzR
Endpoint name: Ratio

CN1C(=O)CN=C(c2ccccc2)c2cc(C#C[Si](C)(C)C)ccc21 ... 1.49
C#Cc1ccc2c(c1)C(=O)N1CCC[C@H]1c1c(-c3nc(CC)no3)ncn1-2 ... 36
CN1Cc2c(C(=O)OC(C)(C)C)ncn2-c2ccc(Br)cc2C1=O ... 24.3
CN1C(=O)CN=C(c2cccs2)c2cc(Cl)ccc21 ... 1.7
CN1Cc2c(C(=O)OC(C)(C)C)ncn2-c2ccc(N3CCCC3)cc2C1=O ... 0.63
CCCCCc1ncn2c1CN(C)C(=O)c1cc(Cl)ccc1-2 ... 5.6
CCOC(=O)c1ncn2c1[C@@H]1CCCN1C(=O)c1cc(Br)ccc1-2 ... 49
C#Cc1ccc2c(c1)C(=O)N1CCC[C@@H]1c1c(C(=O)OCC)ncn1-2 ... 39
C=Cc1ccc2c(c1)C(=O)N(C)Cc1c(C(=O)OCC)ncn1-2 ... 20.8
O=C1CN=C(c2cccs2)c2cc(F)ccc2N1 ... 1.17

====

Measurement target: GABA-A receptor; alpha-3/beta-3/gamma-2 (Homo sapiens, UniProt P18507+P28472+P34903)
Sequence (P18507 whole entry): as the sequence (P18507 whole entry) above
Sequence (P28472 whole entry): as the sequence (P28472 whole entry) above
Sequence (P34903 whole entry): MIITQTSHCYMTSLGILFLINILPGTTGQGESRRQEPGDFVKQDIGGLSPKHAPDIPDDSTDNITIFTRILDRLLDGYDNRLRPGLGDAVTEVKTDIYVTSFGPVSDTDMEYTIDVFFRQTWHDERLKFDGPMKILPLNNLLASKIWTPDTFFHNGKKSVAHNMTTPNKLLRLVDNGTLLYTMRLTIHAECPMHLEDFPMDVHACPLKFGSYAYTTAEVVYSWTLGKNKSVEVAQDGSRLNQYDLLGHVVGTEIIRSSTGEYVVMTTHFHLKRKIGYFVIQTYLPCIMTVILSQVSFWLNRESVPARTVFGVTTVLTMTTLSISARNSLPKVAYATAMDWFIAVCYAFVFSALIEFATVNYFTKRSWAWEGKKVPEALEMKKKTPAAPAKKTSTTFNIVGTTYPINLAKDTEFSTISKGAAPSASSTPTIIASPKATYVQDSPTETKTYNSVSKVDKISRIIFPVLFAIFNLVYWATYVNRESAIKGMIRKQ
Experiment notes: Binding affinity for human recombinant gamma-aminobutyric-acid (GABA) A receptor alpha-3-beta-3-gamma-2
Type: protein-complex assay
We label by threshold. Values of Ki strictly beneath 0.05 µM are condition met. Values of 0.05 µM and up are condition not met.

CCOC(=O)c1[nH]cc2nc3ccc(O)cc3c-2c1COC ... condition met
CCCCCCCCOc1ccc2c(c1)c1c(CC)c(C(=O)OCC)ncc1n2C ... condition not met
COCc1c(SC#N)[nH]cc2nc3ccc(OCc4ccccc4)cc3c1-2 ... condition not met
Clc1ccc2c(c1)[nH]c1c2ncc2[nH]c3ccccc3c21 ... condition met
CCOC(=O)c1[nH]cc2nc3ccc(OC)cc3c-2c1CC ... condition met
COc1ccc(-n2nc3c4cc(Cl)ccc4[nH]cc-3c2=O)cc1 ... condition met
O=C1CN=C(c2ccccc2[N+](=O)[O-])c2cc(Br)ccc2N1 ... condition not met
Clc1cc2c(cn1)[nH]c1ccccc12 ... condition not met
c1ccc2c(c1)[nH]c1c2ncc2[nH]c3ccccc3c21 ... condition met
CN1C(=O)CN=C(c2ccccc2)c2cc(C#C[Si](C)(C)C)ccc21 ... condition not met
COc1ccc(-n2nc3c4ccc(OC)cc4[nH]cc-3c2=O)cc1 ... condition met
c1ccc(COc2ccc3c(c2)[nH]c2c3ncc3[nH]c4ccccc4c32)cc1 ... condition not met
COc1ccc2c(c1)ncc1c(=O)n(-c3ccccc3)[nH]c12 ... condition met
CN1C(=O)CN=C(c2ccccc2)c2cc(Br)ccc21 ... condition met
COc1ccc2c(c1)[nH]c1c2ncc2[nH]c3ccccc3c21 ... condition met
CC(C)c1nc(-c2ncn3c2CN(C)C(=O)c2c(Cl)cccc2-3)no1 ... condition met
CCOC(=O)c1cc2c3cc(OCc4ccccc4)ccc3nc-2c[nH]1 ... condition not met
CCc1c(C(=O)NN)[nH]cc2nc3cc(OC)c(OC)cc3c1-2 ... condition not met
CN1C(=O)CN=C(c2ccccc2)c2ccccc21 ... condition not met
S=C=Nc1cc2c3ccccc3nc-2c[nH]1 ... condition not met
C[Si](C)(C)C#Cc1ccc(-n2[nH]c3c(cnc4ccccc43)c2=O)cc1 ... condition met
CCCOc1ccc2c(c1)c1c(COC)c(C(=O)OCC)ncc1n2C ... condition not met
COC(=O)c1cc2c3cc(NC4CCCCC4)ccc3nc-2c[nH]1 ... condition met

====

Measurement target: GABA-A receptor; alpha-1/beta-3/gamma-2 (Homo sapiens, UniProt P14867+P18507+P28472)
Sequence (P14867 whole entry): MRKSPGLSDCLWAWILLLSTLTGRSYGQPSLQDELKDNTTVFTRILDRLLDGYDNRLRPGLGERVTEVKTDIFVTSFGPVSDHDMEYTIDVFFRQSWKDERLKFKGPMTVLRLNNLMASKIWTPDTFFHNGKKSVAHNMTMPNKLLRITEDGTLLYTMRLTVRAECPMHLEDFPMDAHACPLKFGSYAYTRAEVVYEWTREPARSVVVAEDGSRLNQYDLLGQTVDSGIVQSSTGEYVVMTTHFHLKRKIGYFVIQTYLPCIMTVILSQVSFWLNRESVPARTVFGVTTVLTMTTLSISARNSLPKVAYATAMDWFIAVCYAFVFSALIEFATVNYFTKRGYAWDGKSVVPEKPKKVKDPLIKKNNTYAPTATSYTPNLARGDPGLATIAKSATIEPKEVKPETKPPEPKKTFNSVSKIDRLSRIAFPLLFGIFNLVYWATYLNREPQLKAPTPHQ
Sequence (P18507 whole entry): as the sequence (P18507 whole entry) above
Sequence (P28472 whole entry): as the sequence (P28472 whole entry) above
Experiment notes: Binding affinity for human recombinant gamma-aminobutyric-acid (GABA) A receptor alpha-1-beta-3-gamma-2
Format: protein-complex assay
This section presents molecules with their documented Ki values.
Endpoint name: Ki (nM)

O=C1C2C=Nc3ccccc3C2=NN1c1ccccc1 (stereo unspecified) [CGS-8216] ... 0.05
Fc1ccc2c(c1)[nH]c1c3c4ccccc4nc-3c[nH]c12 ... 5.1
O=c1c2cnc3ccc(Cl)cc3c2[nH]n1-c1ccccc1 ... 0.23
O=C1CN=C(c2ccccc2)c2ccccc2N1 [RO-052921] ... 286
CN1C(=O)CN=C(c2cccs2)c2cc(F)ccc21 ... 141
CCCOc1ccc2c(c1)c1c(COC)c(C(=O)OCC)ncc1n2C ... 25.6
CCCOc1ccc2[nH]c3cnc(C(=O)NN)c(COC)c3c2c1 ... 46
C#Cc1ccc(-n2[nH]c3c(cnc4ccccc43)c2=O)cc1 ... 0.07
CN1C(=O)CN=C(c2ccccc2[N+](=O)[O-])c2cc([N+](=O)[O-])ccc21 ... 0.49

====

Reported Ki by item:
Measurement target: GABA-A receptor; alpha-6/beta-3/gamma-2 (Homo sapiens, UniProt P18507+P28472+Q16445)
Sequence (P18507 whole entry): as the sequence (P18507 whole entry) above
Sequence (P28472 whole entry): as the sequence (P28472 whole entry) above
Sequence (Q16445 whole entry): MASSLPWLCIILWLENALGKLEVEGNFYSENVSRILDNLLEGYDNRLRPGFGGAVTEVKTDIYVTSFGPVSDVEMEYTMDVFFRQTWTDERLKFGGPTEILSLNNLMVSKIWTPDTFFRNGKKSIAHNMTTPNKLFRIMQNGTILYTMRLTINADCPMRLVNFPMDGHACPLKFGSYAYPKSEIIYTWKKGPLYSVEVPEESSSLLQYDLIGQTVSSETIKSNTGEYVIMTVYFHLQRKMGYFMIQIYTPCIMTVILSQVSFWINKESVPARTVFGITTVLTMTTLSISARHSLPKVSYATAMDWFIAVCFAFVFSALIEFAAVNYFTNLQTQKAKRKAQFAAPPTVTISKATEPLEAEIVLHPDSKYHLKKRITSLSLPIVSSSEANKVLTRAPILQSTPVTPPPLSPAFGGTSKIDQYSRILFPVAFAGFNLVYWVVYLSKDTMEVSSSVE
Experiment notes: Binding affinity for human recombinant gamma-aminobutyric-acid (GABA) A receptor alpha-6-beta-3-gamma-2
Endpoint name: Ki

COc1ccc2c(c1)ncc1c(=O)n(-c3ccccc3)[nH]c12 ... 0.00203 µM
CCOC(=O)c1[nH]cc2nc3ccc(OCc4ccc5ccccc5c4)cc3c-2c1COC ... > 1 µM
C[Si](C)(C)C#Cc1ccc(-n2[nH]c3c(cnc4ccccc43)c2=O)cc1 ... > 1 µM
[N-]=[N+]=Nc1ccc2c(c1)C(c1ccccc1N=[N+]=[N-])=NCC(=O)N2 ... > 1 µM
O=[N+]([O-])c1ccc2[nH]c3c[nH]c4c5ccccc5nc-4c3c2c1 ... > 10 µM
CN1C(=O)CN=C(c2ccccc2)c2ccccc21 ... > 3 µM
c1cnc2c3[nH]cc4[nH]c5ccccc5c4c-3nc2c1 ... > 10 µM
COC(=O)c1cc2c(cn1)[nH]c1ccc(NCc3ccccc3)cc12 ... > 10 µM
O=C1CN=C(c2ccccc2)c2ccccc2N1 ... > 3 µM
c1ccc2c(c1)[nH]c1cnc3c4ccncc4[nH]c3c12 ... > 10 µM
CN1C(=O)CN=C(c2cccs2)c2cc(F)ccc21 ... > 0.3 µM
